Each entry below carries its recorded Tm.
Assay explanation: melting temperature; fluorescence melt of hairpins on a sequencing array, two-state fit, raised by 9.35 °C to match UV melts
Condition context: sodium 0.088 M
Express it in °C; write the number only.

GGCTTCGAAAGAAGGCC ((((((....))).)))
57.9

Quick one: give measured Tm for GCCATGCGAAAGCTAGGC (((..((....))..))) 62.2

Give Tm for GTTGATCGAAAGATTAAC (((.(((....))).))) 44.8

Using known records, supply Tm for GACGACGAAAGTCCGGTC ((((((....)))..))) 39.3

Provide one value: measured Tm of GCCAGTCCGAAAGGAGGC (((..(((....)))))) 44.4

Using known records, supply Tm for GTAGGCGAAAGCCTATAC ((((((....)))..))) 45.2

----------
Assay explanation: melting temperature; fluorescence melt of hairpins on a sequencing array, two-state fit, raised by 9.35 °C to match UV melts
Condition context: sodium 0.088 M
Note to self: Tm under 40 °C means y, ties and anything higher get n.

Consider the following illustrative entries.
CGTCGTCGGAAACGAACG (((..(((....))))))
n
GTAGATCCGAAAGGATAC (((..(((....))))))
y
GGCATTGGAAACAGTGTC (.((.((....)).)).)
y

Hello, I'm reviewing records and need to know if Tm of GTCTCAGAAATGAGAC ((((((....)))))) is below 40 °C. Could you check? n

State whether 40 °C exceeds Tm recorded for GCCATCGAAAGATCAGGC ((((((....)))..))) . y

Strictly below 40 °C in Tm? GACCTCGGAAACGAAGTC (((.(((....))).))) y

Below 40 °C on Tm? Entry GTCCCACGAAAGTGCGAC (((.(((....))).))) n

Here's an entry: GTCCTCCGAAAGGAAGAC (((.(((....))).))) . Is its Tm below 40 °C? n

Could you please tell me whether Tm recorded for GTGTTCGAAAGAAGCAC ((((((....))).))) is less than 40 °C? y

----------
Assay explanation: folding enthalpy; higher = less favourable; fluorescence melt of hairpins on a sequencing array, two-state fit
Condition context: sodium 0.088 M
Readout label: folding enthalpy (kcal/mol)
Give the value in kcal/mol but do not write kcal/mol after it.

Return reported folding enthalpy. Input sequence: GGAAGCGAAAGCTTTTCC ((((((....)))..))) -12.2

Determine from records and report folding enthalpy for GGGTTAGGAAACTGACTC (.((.((....)).)).) -12.3

Fill in reported folding enthalpy for this entry: GCTTACGAAAGTACTAGC ((((((....)))..))) -13.6

Identify the reported folding enthalpy for the following entry. GGGCTGCGAAAGCACCC (((.(((....)))))) -21.4

Report measured folding enthalpy; entry is GCGTGAACGAAAGTTCGC (((..(((....)))))) -15.3

Retrieve folding enthalpy measured for GATCACTAGAGTGATC ((((((....)))))) and print it. -40.8

Respond only with folding enthalpy recorded for GACGTTGGAAACAACATC ((.((((....)))).)) -16.8

Output measured folding enthalpy for this item: GCCAGATCGAAAGATGGC (((..(((....)))))) -27.4

Return the recorded folding enthalpy value; entry: CGAGCGGAAACGCTCTCG ((((((....)))..))) -8.45
